test system: MS2 coat protein; assay: apparent Kd, MS2 coat protein; higher = weaker binding; RNA-MaP array; details: ligand present: flavin mononucleotide; designed as: OFF switch for flavin mononucleotide
Quick list: apparent Kd per entry.
PROPERTY MEASURED: apparent Kd (nM)

GACUGGAGGAGAGGAUAUGCAAAGACUCUAUUCGCAGAAGGCUCGUGCGGUCAACAUGAGGAUCACCCAUGUCUGGCGACAUGC	8.62
UCAUUGUGAGGAUAUUGAUAGCGGACCUUGAUUCUGUACAACAAGAAGGCACAUGAGGAUCACCCAUGUCAUCA	58.4
GUACAGGAGGAAGGAUAUAAUGCACAUGAGGAUCACCCAUGUAAGAGGAAAUCACCAUAACUGAUUUAGAAGGACCAGCAAAAC	11.3
UCUCGGUAAGGAUAUAAAGCGACUCACAUGAGGAUCACCCAUGUUGUCGUCGUGGGCACAUUAGAAGGUACCAUUC	6.3
AGACGGUUACAGGAUAUGACUACUGCUAGAGCAUCAGAAGGGUAUACAUGAGGAUCACCCAUGUCUUCACGGCG	9.62
UAGGUGCUAGGAGGAUAUUGUGAAUUUAAUUUUCAAGAAGGCCUGAACAGACUGCACAUGAGGAUCACCCAUGUAUCCAACGUC	11.7
AAAAGGGCAGGAUAUACAUGAGGAUCACCCAUGUUAAAGCCAACAAGAAGUUCCACUGGUAGAAGGGCCAUAGA	8.55
CUGUAGACAGGAUAUGUUGUGCCGUACAUGAGGAUCACCCAUGUGAGAUCUCGCUACCAUACAGAAGGGUCUAAAC	57.4
GUCAUUCUCAACAUGAGGAUCACCCAUGUCGGUUAUCUGGGCUAGGAUAUCACGAUGCCACUGCGUGAGAAGGAGCGUUCGAUA	27.5
UCAAGCAUGGAGAAGGCCCGGGUUGACACGUCGGGAGGAUAUCCAGACUCACAUGAGGAUCACCCAUGUUAUUGCGGCGACUCC	57
CCCAUUGAGGAGGAUAUACUAUUGGAGACUCUCGUAGAAGGCCUGACAUGAGGAUCACCCAUGUACGUGAUAUC	76.7
GCGGACGAUGAGAAGGUAGUAAGGUAGGACAUGAGGAUCACCCAUGUAUGAACUAUCCCAACAACUAAGGAUAUCAGCAACCCU	5.77
ACGGUAGGCUAGAAGGCCCGGACUCGCCCAGAGGGAGGAUAUAGCAUUGGCGUACUACAUGGCACAUGAGGAUCACCCAUGUAA	30.6
UGUCCCACGCAAGUACAUGAGGAUCACCCAUGUCUGAACCAGAGAAGGAGAGUUAUACUGGAAAUCUAGGAUAUCUGACAGACU	50.5
UGGCACAAGUUAGGAUAUAGCACUUCUGUAAAGCUAGAAGGAACGUUGCACAUGAGGAUCACCCAUGUCAGUAAUUGAUAUGUA	12.6
GACGUCGCCUUAGGAUAUGCCCAUUACAUGAGGAUCACCCAUGUUUCUUAAAGAGGAUCCGCAUGGCAGAAGGAAGGUCUCCAC	59.4
ACUCCGUCGUAGAAGGGAAAAUGCUUGGCGUCUCUCGGGUACAUGAGGAUCACCCAUGUUACGGUUCAGGAUAUACAGACUGCU	10.6
GUGACUAGCGUAAGGAUAUUCACGAGCGGCGGCUUGAAGAAGGUACAUGAGGAUCACCCAUGUAGGGUAAUCAA	44.3
UUAGAUCGUGUCAGGAUAUCGGACCGGCCCGCCUCCGAGAAGGGACAUGAGGAUCACCCAUGUCACGGUCCAUU	7.84
GCAUAACAUGAGGAUCACCCAUGUGAGGAUAUUCCCUCCGGCAAUUGCUCCCAAGAGGGAAGAAGGCACAGUGG	66.1
UACGGUCAUAGAGGAUAUAGAUCGCGCAACGGUUUCGUGGCCCACAUGAGGAUCACCCAUGUUAUCUAGAAGGCUAUGAGUCGC	6.8
GACCUCCUGCGAGCACAUGAGGAUCACCCAUGUAAGGACCUGAGAAGGCACCGUUAAGAUUGGAGUGAGGAUAUCAGGAUAUAG	19.7
GGUGGGUCAGGAUAUCCCACACAAUUGCGAACGCGAUGCAGGGAGAAGGGACAUGAGGAUCACCCAUGUGGGAC	64.9
CGUAUGGGUGUCAGGAUAUGCGGGACGCUGUUACUGCAGAAGGGACAUGAGGAUCACCCAUGUAGUUCCAGACC	33.3
AGGCCACAUGAGGAUCACCCAUGUAAGGAUAUUGGAGCAUGGAAACGCUGUGCGCAUGCAAGAAGGUACACGGA	20.5
UUAUGUGACGAGGAUAUGAAAAGGAGUGGUGAAUCAGAAGGCGUAACAUGAGGAUCACCCAUGUCAGUGGGCCU	71.3
AGCGUGUAAGGAUAUUGAUCUCCACUUCUGUAGGUCGGUGACAAGAAGGUACAUGAGGAUCACCCAUGUCCAUG	21.7
GACAGCAUCCGAGGAUAUAUGUACGUAAUCAAACCACAUGAGGAUCACCCAUGUCCUCUAGGUUCAUAGAAGGCGGUUUAGCGU	750
CUGUUUGGAGAGGAUAUGUCGGGAAGCUAAUCAACAGAAGGCUCAACAUGAGGAUCACCCAUGUCGGGUGCGUA	49.1

###

tested on: MS2 coat protein; experiment: apparent Kd, MS2 coat protein; higher = weaker binding; RNA-MaP array; FMN 200 µM where present; conditions: designed as: OFF switch for flavin mononucleotide; no ligand
PROPERTY MEASURED: apparent Kd (nM)

CGGGCGCGAGGAUAUACAUGAGGAUCACCCAUGUAGUGGGUUUGUUUCGGGCUUGCGUGUAGAAGGUGUGUUUG	217
GCUUAUAGAGGAUAUACAGAUUAUUACAUGAGGAUCACCCAUGUUCUUCAAUGUAUAUAUGUAGAAGGCUAAGGAU	61.5
GUCAAGUGAGGAUAUGAUUGUACAACAGACUAGCGUCUGCAUCAGAAGGCACAUGAGGAUCACCCAUGUUUGUC	19.6
GGAAAUCAUGUAGGAUAUGCAUGGCGAAGCUACGCAGAAGGACAUGAGGAUCACCCAUGUUAUAGCGUCCGAGAAGGGAUGCAA	40
UUCUAACGAGGAUAUCGAUGGUGGAACAUGAGGAUCACCCAUGUAUGAGAUAUUGUAGUUCGAGAAGGCGUUCAGU	42.1
UAUUAAAACGAGAAGGGAGUACAUGAGGAUCACCCAUGUGCCUCAUAAUACUCAGGAUAUCGUGAUUGGGUCACCAGCUGGGUG	509
ACUAGAUGAGGAUAUGCAUAUUUUCGUGUUCUUCUAGAUUAACAUGAGGAUCACCCAUGUAGAAGGCGUCAUUA	16.5

###

tested on: MS2 coat protein; experiment: apparent Kd, MS2 coat protein; higher = weaker binding; RNA-MaP array; FMN 200 µM where present; conditions: designed as: ON switch for flavin mononucleotide; no ligand
PROPERTY MEASURED: apparent Kd (nM)

GUAGCAUACCGAGGAUAUCUAACGACAAAGUCGACAUGAGGAUCACCCAUGUGGCGAAAGCCUUGGGAGAAGGCGGAAUGCUAC	16.2
GGAGCACACAUUAACAUGAGGAUCACCCAUGUCAAAAGACAUGAGGAUAUGGAUCCGAAAAGGAUCCAGAAGGCAUGGAGCUCC	169
CGUCGAUACCAGAAGGACAUGAGGAUCACCCAUGUAGGAUAUGGGUGACCGGGAUGGCAGACAUGGUGCCCGGGCACAUGCGAC	70
GUGGUGUAGAUACAGGAUAUGUUGCUCGUAACAUGAGGAUCACCCAUGUAUCUAUGAGAAUAAAUGCAGAAGGGUGCACACCACU	549
CCGAAACCUCAGAAGGACCACAUGAGGAUCACCCAUGUCAAGCAAAACGGUAGGAUAUGAGGGAAAAGUCGAUAUACCCGACAG	7.84
GGGUACAUCGGAGGAUAUCAUGUAAAUACAUGAGGAUCACCCAUGUCGAUGGAGACAUCGGAGAUUGAGAAGGCCGAUCUACCG	213
CGGCCGCUACGCCGGCUCGACGCACAGGAUAUGCUGUUACAUGAGGAUCACCCAUGUGGCCAUGAGCAGAAGGGUGAUUCGCGA	48.9
AAAAAAAAAACUCAGGAUAUAGAUUGUUGAACAUGAGGAUCACCCAUGUAGUGAAAAGCGAAAAACUAGAAGGGAGGAAAAAAAAA	82.5
AAUUAUAUGUAGAAGGUACAGACUUAUGAGUAGUAAGGAUAUACAAAAUUAUUAAUUCUCAAGUUACAUGAGGAUCACCCAUGU	11.6
AAUUGGAUGCAGAAGGCAUGGACGACUCGUCACAUUAACAUGAGGAUCACCCAUGUAAUAAGACAUGAGGAUAUGCAUCCUAAA	7.68
AGAUUUGUACAUGAGGAUCACCCAUGUUAAUAGGUGGUUGUCAGAAGGCAUUAAUAGAGUUUUAAUGAGGAUAUGAAUUUACAA	1030
CUCGAGUCAAGGCUCGCGAGUACACAGGAUAUGAAAAGUCACAUGAGGAUCACCCAUGUCCAAAAUCAGAAGGGUGAGACUAAG	764
GGCUUAAACACAGGAUAUAGUCUUAGGGCGAGACUAGAAGGGUGAAGUUCUCAUACAUGAGGAUCACCCAUGUCACGGAGGCUA	45.1
GUAUAUCACUUAGGAUAUCUAUAAUUUAUUGAAACAUGAGGAUCACCCAUGUUCAUAAAUUUAUAGGAGAAGGGAGUGAUAUAC	4.22
